The measured values listed here are drawn from paper PMC3821859.

Molecular target: HMGB1ΔC (Homo sapiens, UniProt P09429 1-185, del186-215)
Sequence (P09429 1-185, stated change not applied): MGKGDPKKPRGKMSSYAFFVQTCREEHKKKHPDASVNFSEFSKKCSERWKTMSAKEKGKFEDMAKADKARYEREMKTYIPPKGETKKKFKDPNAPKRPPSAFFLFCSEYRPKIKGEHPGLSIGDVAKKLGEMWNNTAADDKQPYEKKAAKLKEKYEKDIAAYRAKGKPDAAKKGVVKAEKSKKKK
Assay: fluorescence anisotropy; 50 nM DNA; sigmoidal dose-response fit; 10 mM Tris-HCl pH 7.5, 50 mM NaCl, 0.5 mM DTT, 0.1 mM EDTA, 5% glycerol; 25 °C (anisotropy)
Conditions: protein: recombinant; tags: N-terminal 6xHis with TEV site, not removed; label: 5'-6-FAM on complementary strand; blunt
assay-endpoint: Kd (nM)
Numbers only, in nM.

Would you mind telling me what Kd value was observed for 20-bp dsDNA, 6-FAM (dsDNA) DNA 1: TACTGTATGAGCATACAGTA DNA 2: TACTGTATGCTCATACAGTA ?
72
